B1: F1*; the commonest letter at each place (parent)
chain: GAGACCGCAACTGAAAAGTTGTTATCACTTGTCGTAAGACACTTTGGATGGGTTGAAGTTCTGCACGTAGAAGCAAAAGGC

- Variants of: B1
- Procedure Text: fraction ligated after 30 min (ligated reads / total reads); higher = more ligase activity
- Study Conditions: with F1*sub RNA substrate (template-directed ligation), 42 °C
fraction ligated for assorted variants

# Mutation Id, fraction ligated
records = [
    ("T35C C40G", 0.817),
    ("G31C A48C", 0.242),
    ("G55A A56C A57C", 0.0438),
    ("C40T A56C", 0.773),
    ("G31A T45C", 0.0954),
]

fraction ligated measured on A37C A57T = 0.831

fraction ligated measured on T25G G46C = 0.135

fraction ligated measured on G55T A57C = 0.717

fraction ligated measured on A36G T45A = 0.785

fraction ligated measured on A37T G38A = 0.827

fraction ligated measured on G34C T49G = 0.75

fraction ligated measured on T25G C26G = 0.0648

fraction ligated measured on `G34C` = 0.832

fraction ligated measured on T35C G55A = 0.841

fraction ligated measured on G50C G55A = 0.112

fraction ligated measured on A36G C42T = 0.849

fraction ligated measured on `G58A` = 0.851

fraction ligated measured on T25C A36C = 0.771

fraction ligated measured on G46A G47A = 0.804
